Tested on: LOX IMVI
Assay: NCI tumour cell line growth inhibition, 48 h
The source made the active and inactive calls. No stated cut-off is given here; in the data, active = GI50 up to about 1.1 µM and inactive = higher.
Select the matching outcome among 1 (active), 0 (inactive)

For orientation, consider the following solved cases.
COC(=O)CSc1ccccc1	0
CN(C)[C@@H]1C(O)=C(C(=O)NCNc2nc3[nH]nnc3c(=O)[nH]2)C(=O)[C@@]2(O)C(O)=C3C(=O)c4c(O)cccc4[C@@](C)(O)[C@H]3C[C@@H]12	1

Ask: What did this assay record as the result for `COc1ccc(CNC2=N/C(=C\c3ccccc3Cl)C(=O)N2C)cc1` ?
Result: 0

Ask: What did this assay record as the result for `COc1cc([C@@H]2c3cc4c(cc3[C@@H](NCCCN(C)C)[C@H]3COC(=O)[C@H]23)OCO4)cc(OC)c1O` ?
Result: 1

Ask: What did this assay record as the result for `COc1ccc(-c2cc(-c3ccccc3)nc3c2CC(=O)Nc2ccccc2-3)cc1OC` ?
Result: 0

Ask: What did this assay record as the result for `C#CCN(C(=O)C(F)(F)F)C(/C=C\C(=O)OC)(C(=O)OCC)C(=O)OCC` ?
Result: 0

Ask: What did this assay record as the result for CCOC(=O)C1=C(C)N(Cc2ccc(Cl)cc2Cl)C2(O)C(OC)CC(=O)C3C(=O)N(c4ccccc4)C(=O)C132 (centres undefined) ?
Result: 1

Ask: What did this assay record as the result for O=C(NC12CC3CCC1CC(C3)C2)[C@@H]1CCCN1C(=O)OCc1ccccc1 (some centres undefined) ?
Result: 0

Ask: What did this assay record as the result for `CC(C)(C)C1=CC(=C2C=Cc3ccccc3O2)C=C(C(C)(C)C)C1=O` ?
Result: 0

Ask: What did this assay record as the result for `O=C(Nc1ccc2[nH]c3c(-c4ccccc4)nccc3c2c1)c1ccccc1[N+](=O)[O-]` ?
Result: 0

Ask: What did this assay record as the result for C/C=C1\CC(C(=O)OCC)CCCCCCCCCCC1=O (centres undefined) ?
Result: 0

---

Test system: UACC-257
Assay: NCI tumour cell line growth inhibition, 48 h
Activity calls are given as the source filed them. Cut-off read from the data, not from the text of the source: active = GI50 up to about 1.1 µM and inactive = higher.
Select the matching outcome among active, inactive

For orientation, consider the following solved cases.
O=C(NCC(=O)N1CCOC1=O)OCc1ccccc1	inactive
COc1ccc(OC)c([N+](=O)[O-])c1-c1nc2sc(C)c(C)n2c1/C=N/N=C(N)N	inactive
COc1cc2cc[n+]3c4cc(OC)c(OC)cc4c(C)cc3c2cc1OC	inactive
CN(C)CCNc1nc2c(c(=O)n(C)c(=O)n2C)n1C	inactive
COc1ccc(-c2cc(C3CC3)nc(SCC(=O)O)c2C#N)cc1	inactive
COc1c(C)c(OC)c2c(c1O)[C@@H]1[C@@H]3Cc4c(OC)c(C)c(OC)c(O)c4[C@H](CNC(=O)c4cnc5ccccc5n4)N3[C@@H](C#N)[C@H](C2)N1C	active

Ask: What did this assay record as the result for `COC(=O)Cc1cc(O)c2c(c1O)C(=O)c1ccccc1C2=O` ?
Result: inactive

Ask: What did this assay record as the result for `CCOC(=O)/C=C(/C(=O)OCC)n1cc(C)c(=O)n(/C(=C/C(=O)OCC)C(=O)OCC)c1=O` ?
Result: inactive

Ask: What did this assay record as the result for `Cc1cc(S(=O)(=O)NC2=Nc3cccc4cccc(c34)N2)c(S)cc1Cl` ?
Result: inactive

---

Test system: ACHN
Test: NCI tumour cell line growth inhibition, 48 h
Calls of active or inactive are those of the source. Cut-off read from the data, not from the text of the source: active = GI50 up to about 1.1 µM and inactive = higher.
Select the matching outcome among y = active, n = inactive

For orientation, consider the following solved cases.
CCOC(=O)c1nc2cc(C(F)(F)F)ccc2nc1Nc1ccc(C(=O)NC(C(=O)OCC)C(=O)OCC)cc1	n
COc1c(C)c(OC)c2c(c1O)[C@@H]1[C@@H]3Cc4c(OC)c(C)c(OC)c(O)c4[C@H](CNC(=O)c4cnc5ccccc5n4)N3[C@@H](C#N)[C@H](C2)N1C	y
COS(=O)c1cc(Cl)cc(Cl)c1O (stereo not drawn)	n
COc1cc(OC)c(OC)cc1/C=C/c1ccc2ccccc2n1	n
CC1CC[C@@]2(OC1)OC1C[C@H]3[C@@H]4CC=C5C[C@@H](OC6OC(CO)C(OC7OC(CO)C(O)C(O)C7O)C(O)C6OC6OC(C)C(O)C(O)C6O)CC[C@]5(C)[C@H]4CC[C@]3(C)C1[C@@H]2C (stereo partly drawn)	n

Ask: What did this assay record as the result for `Nc1nnc2c(-c3ccccc3)n[nH]c2n1` ?
Result: n

Ask: What did this assay record as the result for `COC(=O)CSc1ccccc1` ?
Result: n

Ask: What did this assay record as the result for `CCNCCNc1c2ccccc2nc2ccccc12` ?
Result: y

Ask: What did this assay record as the result for `Cc1ccc(NCc2nnc3c(-c4ccccc4)nc4ccccc4n23)cc1` ?
Result: n

---

Test system: NCI-H522
Experiment: NCI tumour cell line growth inhibition, 48 h
Calls of active or inactive are those of the source. Cut-off read from the data, not from the text of the source: active = GI50 up to about 1.1 µM and inactive = higher.
For each record, write down the corresponding GI50.

Worked set:
COCOC1CCCC[C@@]1(OCCOCCO[C@@]1(c2ccccc2)CCCC[C@H]1OCOC)c1ccccc1 (some centres undefined)	> 100 µM (inactive)
Cc1ccc(NC(=O)CC(=O)N2N=C(N(c3ccccc3)c3ccccc3)CC2c2ccccc2)cc1 (centres undefined)	> 100 µM (inactive)
CSc1nc(NC2OC(COC(C)=O)C(OC(C)=O)C(OC(C)=O)C2OC(C)=O)c(-c2csc(N)n2)c(=O)n1C (centres undefined)	56.2 µM (inactive)
O=C1Nc2ccccc2C(=O)O/C(Cc2ccccc2)=N\c2ccccc21	> 100 µM (inactive)
CC(=O)OC1CCn2nnc(CO[Si](C)(C)C(C)(C)C)c21 (centres undefined)	> 100 µM (inactive)
CC1(C)N=C(c2ccccc2)SC12S[C@@H]1CCCC[C@H]1S2	> 100 µM (inactive)
NC(=O)NC1C(C(=O)O)N(Cc2ccccc2)C(=O)N1Cc1ccccc1 (centres undefined)	> 100 µM (inactive)
Cc1cccc(C)c1Nc1nc(C)c(C(=O)CC(=O)C(=O)Nc2c(C(C)C)cccc2C(C)C)s1	> 100 µM (inactive)

# input for lookup
Ask: Provide one value: measured GI50 of `c1ccc2c(CNCCCCCCCCNCc3cccc4ccccc34)cccc2c1`
Result: 1.79 µM (inactive)

---

Test system: K562
Experiment: NCI tumour cell line growth inhibition, 48 h
Activity calls are given as the source filed them. Cut-off read from the data, not from the text of the source: active = GI50 up to about 1.1 µM and inactive = higher.
Select the matching outcome among active, inactive

O=C(O)CCC(=O)c1ccc2ccc3cccc4ccc1c2c34	inactive

Ask: What did this assay record as the result for `CN(C)[C@@H]1C(O)=C(C(=O)NCNc2nc3[nH]nnc3c(=O)[nH]2)C(=O)[C@@]2(O)C(O)=C3C(=O)c4c(O)cccc4[C@@](C)(O)[C@H]3C[C@@H]12` ?
Result: active

Ask: What did this assay record as the result for `COc1cc(Oc2nc3ccccc3nc2C(=O)O)cc(OC)c1OC` ?
Result: inactive

Ask: What did this assay record as the result for `O=C1OC(c2ccccc2)=N/C1=C\c1ccc2ccccc2c1` ?
Result: inactive

---

For each record, write down the corresponding GI50.
System: KM12
Assay: NCI tumour cell line growth inhibition, 48 h
Calls of active or inactive are those of the source. No stated cut-off is given here; in the data, active = GI50 up to about 1.1 µM and inactive = higher.

# return GI50 for each item in the list
1. CCOC(=O)c1nc2ccc(C(F)(F)F)cc2[nH]c1=O
2. O=C(O)c1ccc(C(=O)c2ccccc2C(=O)O)cc1C(=O)O
3. CCOC(=O)C=C1CCN(C(=O)c2ccccc2)CC1
4. c1ccc2c(CNCCCCCCCCNCc3cccc4ccccc34)cccc2c1
5. C[C@]12CC[C@H]3[C@@H](CC=C4C[C@@H](O)CC[C@@]43C)[C@@H]1C[C@H](N1CCOCC1)[C@@H]2O
6. O=C(O)C1C2C=CC(O2)C1C(=O)NCc1cccnc1 (stereo unspecified)

Result:
["> 100 µM (inactive)", "> 100 µM (inactive)", "> 100 µM (inactive)", "1.82 µM (inactive)", "> 100 µM (inactive)", "> 100 µM (inactive)"]

---

System: Malme-3M
Experiment: NCI tumour cell line growth inhibition, 48 h
Active and inactive are the calls of the source. No stated cut-off is given here; in the data, active = GI50 up to about 1.1 µM and inactive = higher.
Readout Name: GI50

Worked set:
CCC(=O)N1C(=O)C(CC)(CC)C(=O)N1C(=O)CC	> 100 µM (inactive)
CCOC(=O)[C@H]1O[C@@H]1C(=O)NC(CC(C)C)C(=O)NCCC(C)C (stereo not given in full)	> 100 µM (inactive)
COc1ccc2c(c1)CCc1c-2nc2cc3c(cc2c1O)OCO3	> 100 µM (inactive)

# return GI50 for each item in the list
1. Cc1ccc(NCc2nnc3c(-c4ccccc4)nc4ccccc4n23)cc1
2. CC1=C(C(=O)Nc2cc(=O)n(C)c(=O)n2C)C(c2ccco2)C(C(=O)Nc2cc(=O)n(C)c(=O)n2C)=C(C)N1

Result:
1: 37.2 µM (inactive); 2: > 100 µM (inactive)

---

For each record, write down the corresponding GI50.
Test system: U-251
Test: NCI tumour cell line growth inhibition, 48 h
Active and inactive are the calls of the source. Cut-off read from the data, not from the text of the source: active = GI50 up to about 1.1 µM and inactive = higher.

Worked set:
COc1ccc(C2CC(=O)c3c(O)cc(O)cc3O2)cc1O (stereo unspecified)	> 100 µM (inactive)
CCOC(=O)C=C1CCN(C(=O)c2ccccc2)CC1	> 100 µM (inactive)
COC(=O)c1ccccc1C1CN=NC12Cc1ccc(C)c(C)c1C2=O (stereo unspecified)	> 100 µM (inactive)
COC(=O)CCc1ccc2c(c1)C(=O)CC2	> 100 µM (inactive)
OC(CCNCc1ccccc1)c1ccc2ccccc2c1 (stereo unspecified)	16.9 µM (inactive)
N#C[C@H]1C(=O)C(c2nc3ccccc3[nH]2)S[C@H]1c1ccccc1 (stereo partly specified)	22.6 µM (inactive)

# return GI50 for each item in the list
1. Cc1cc(N(CCC#N)CCC#N)ccc1C(/N=N/c1ccccc1)=N\NC(=O)c1ccccc1
2. CC(=O)OCOC(=O)CN(CC(=O)OCOC(C)=O)Cc1cc2c(cc1OC(C)=O)Oc1cc(OC(C)=O)c(CN(CC(=O)OCOC(C)=O)CC(=O)OCOC(C)=O)cc1C21OC(=O)c2ccccc21
3. C[C@]12CC[C@H]3[C@@H](CC=C4C[C@@H](O)CC[C@@]43C)[C@@H]1C[C@H](N1CCOCC1)[C@@H]2O
4. COc1ccc(OC)c([N+](=O)[O-])c1-c1nc2sc(C)c(C)n2c1/C=N/N=C(N)N

Result:
35.7 µM (inactive)
1.87 µM (inactive)
49.2 µM (inactive)
49.7 µM (inactive)

# credit: ChEMBL document CHEMBL1201862
